- Test system: Plasma
- protocolText: Half life in human plasma at 1 uM by LC-MS/MS analysis
- Format: ADME, cell-free
Think of 20 h as a floor: if t1/2 stands on it or above, it is True; beneath it, False.

Example results:
compound	label
Cc1ccc2c(Cl)cc(Cl)c(O)c2n1 [CHLORQUINALDOL]	True
Oc1c(CNc2ccccn2)ccc2cccnc12	False
Cc1ccnc(NC(c2ccc([N+](=O)[O-])cc2)c2ccc3cccnc3c2O)c1 (stereo unspecified)	True
Oc1c(Cl)cc(Cl)c2cccnc12 [CHLOROXINE]	False
Oc1c(I)cc(Cl)c2cccnc12 [CLIOQUINOL]	True

Kindly consider the entry below.
stdin: Is t1/2 at least 20 h? Consider Cc1ccnc(NC(c2ccc([N+](=O)[O-])cc2)c2ccc3ccc(C)nc3c2O)c1 (stereo unspecified)
stdout: True
